System: biotinyl-Leu-oxazolone
Experiment: self-aminoacylation, catalytic enhancement (BLO) (fold over background); higher = more active; k-Seq, kA / k0A0; sequences stand for … in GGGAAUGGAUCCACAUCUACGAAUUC…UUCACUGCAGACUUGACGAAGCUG
Variants at the floor of the assay were thinned out.
Answer each item with its documented self-aminoacylation.
Numbers only.

Worked set:
# sequence.data, assay.metric, meas.value
records = [
    ("CCACUUCAAACAAUCGUUCUG [Fam1A.1 aminoacylation ribozyme variant]", "self-aminoacylation", 0.653),
    ("AUUCACCUAGCUCAUCGGGUG [Fam2.2 aminoacylation ribozyme variant]", "self-aminoacylation", 2.05),
    ("CCACACUUCAAGCACUUGGUC [Fam1B.1 aminoacylation ribozyme variant]", "self-aminoacylation", 0.818),
]

Now for another entry.
Please look at this sequence and report its self-aminoacylation: AUUACCCUGGUCAUCAAGUGC [Fam2.1 aminoacylation ribozyme variant]
0.567

----------
For each record, write down the corresponding self-aminoacylation.
Tested on: biotinyl-Met-oxazolone
Experiment: self-aminoacylation, catalytic enhancement (BMO) (fold over background); higher = more active; k-Seq, kA / k0A0; sequences stand for … in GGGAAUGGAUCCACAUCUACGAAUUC…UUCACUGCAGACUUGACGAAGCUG
Fewer inactive variants are shown than the library holds.
One number for each entry.

Below are some sequences; for each one, tell me its self-aminoacylation.
1. CUACUUCAAACUAUGGGUCUG [Fam1A.1 aminoacylation ribozyme variant]
2. AAGUUUCCUAAUAGUAGCAAG [Fam3.1 aminoacylation ribozyme variant]
3. AUUACCCUUGUCAUCGAGUCA [Fam2.1 aminoacylation ribozyme variant]
4. CCACACUUAAAGCCAUCGGUC [Fam1B.1 aminoacylation ribozyme variant]
5. CCACACUGCAAGGAAUCGGUC [Fam1B.1 aminoacylation ribozyme variant]

[0.789, 1.17, 0.756, 0.801, 1.35]

----------
Tested on: biotinyl-Met-oxazolone
Assay: self-aminoacylation, catalytic enhancement (BMO) (fold over background); higher = more active; k-Seq, kA / k0A0; sequences stand for … in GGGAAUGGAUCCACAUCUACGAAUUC…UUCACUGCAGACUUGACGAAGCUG
Fewer inactive variants are shown than the library holds.
assay.metric: self-aminoacylation
One number for each entry.

# annotated cases, reported self-aminoacylation shown
# sequence.data, self-aminoacylation
data = [
    ("CUAUUUCAAAGAAUCGGUCUG [Fam1A.1 aminoacylation ribozyme variant]", 0.93),
    ("CCGCGCUUCAAGCAAUCGGUC [Fam1B.1 aminoacylation ribozyme variant]", 2.37),
    ("AAGCUUGCUAUUAGUCGCAAG [Fam3.1 aminoacylation ribozyme variant]", 2.23),
]

Hi team, please reply with self-aminoacylation for each item in this list.
1. AUGACCCUGGUCAUCCAGUGA [Fam2.1 aminoacylation ribozyme variant]
2. CUAUUUCAAACAAUCGGUGUG [Fam1A.1 aminoacylation ribozyme variant]
3. AUUUCCCUGGUCAUCCAGUGA [Fam2.1 aminoacylation ribozyme variant]
4. AUUACCCUGGUCAUUGAGUGA [Fam2.1 aminoacylation ribozyme variant]
5. CUACUACAAACUAUCGGUCUG [Fam1A.1 aminoacylation ribozyme variant]
6. CCUCACUUCAAGCAACCGGUC [Fam1B.1 aminoacylation ribozyme variant]
7. CUAGCUCAAACAAUCGGUCUG [Fam1A.1 aminoacylation ribozyme variant]
8. AUUUCCCUAGUCAUCGAGUGA [Fam2.1 aminoacylation ribozyme variant]

[6.57, 1.01, 7.52, 9.01, 0.949, 0.857, 0.776, 6.04]

Field: self-aminoacylation. Fill in for each record below.
1. AAGAUUGCUAAUAGUCGCAAG [Fam3.1 aminoacylation ribozyme variant]
2. CCACCGUUCAAGCAAUCGGUC [Fam1B.1 aminoacylation ribozyme variant]
3. ACACACUUCAAGCAAUCGGUG [Fam1B.1 aminoacylation ribozyme variant]

1. 1.32
2. 0.827
3. 7.83

Consider the following items and state reported self-aminoacylation for each.
1. CCACACUUCCAGCAAUCGGGC [Fam1B.1 aminoacylation ribozyme variant]
2. AUUACCCUGCUCAACGAGUGA [Fam2.1 aminoacylation ribozyme variant]
3. AUUACCCUGGUCAGCGGGUGA [Fam2.1 aminoacylation ribozyme variant]
4. CUACUUCAAACAUUCGGGCUG [Fam1A.1 aminoacylation ribozyme variant]
5. CCGCAGUUCAAGCAAUCGGUC [Fam1B.1 aminoacylation ribozyme variant]

[1.72, 5.64, 9.2, 2.06, 1.96]
